# TESTED_SYSTEM: T1, pig NPR1 extracellular domain expressed with a C-terminal myc-myc-hexahistidine (pig)
# T1 chain: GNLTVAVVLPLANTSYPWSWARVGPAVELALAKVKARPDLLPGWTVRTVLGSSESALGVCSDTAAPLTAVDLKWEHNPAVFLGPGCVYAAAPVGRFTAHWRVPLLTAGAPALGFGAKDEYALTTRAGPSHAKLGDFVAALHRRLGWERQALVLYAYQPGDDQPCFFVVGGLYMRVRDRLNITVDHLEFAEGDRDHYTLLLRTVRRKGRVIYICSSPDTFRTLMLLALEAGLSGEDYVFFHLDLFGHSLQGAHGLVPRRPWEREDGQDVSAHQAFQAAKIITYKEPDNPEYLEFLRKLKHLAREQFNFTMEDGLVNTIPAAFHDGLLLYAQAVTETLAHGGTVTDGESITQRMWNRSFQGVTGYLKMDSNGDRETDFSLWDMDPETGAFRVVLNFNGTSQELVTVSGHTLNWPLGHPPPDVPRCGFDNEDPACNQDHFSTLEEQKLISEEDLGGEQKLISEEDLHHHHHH
# RUN_DESCRIPTION: SPR Biacore 8K, mAb captured via anti-hFc, 25 C
RECORDED_METRIC: 40 nM Ag Bound (RU)
Provide only the numeric value, understood in RU.

Ask | // returns reported 40 nM Ag Bound (RU) for input REGN7541 (antibody, human IgG4 S228P, kappa, V domains shown, also called mAb38067) VH: EVQLVESGGGLVQPGGSLRLSCAASGFTFSSYAMSWVRQAPGKGLEWVSTISGSGTNTYYADSVKGRFTISNDNSKNTLYLQMNSLRAEDTAVYYCANYDILTGHSFEYWGQGTLVTVSS VL: AIQMTQSPSSLSASVGDRVTITCRASQGIRNDLGWYQQKPGKAPELLIYAASRLPSGVPLRFSGSGSGTDFTLTISSLQPEDVATYYCLQDYNYPFTFGPGTKVDIKR
Reply | 0
